Test system: A498 renal
Assay: NCI tumour cell line growth inhibition, 48 h; in the data active = GI50 below about 0.43 µM; inactive = the rest
Respond with a class label; see true (1) for active, false (0) for inactive

Challenge: I'd appreciate the recorded outcome for Nc1nc2c(c3ncccc13)C(c1ccc(Cl)c(Cl)c1)Cc1ncccc1-2 (stereo not given) from this test.
Response given: false (0)

Challenge: How about O=c1[nH]cnc2c1nnn2C1OC(CO)C(O)C1O (stereo not given) ?
Response given: false (0)

Challenge: Check NC(N)=N/N=C/c1c(-c2cccs2)nc2sccn12 too.
Response given: false (0)

Challenge: Input O=C1c2ccccc2-c2nccc3cc(Cl)nc1c23
Response given: false (0)

Challenge: Proceed to CNC(=O)c1c(NC(=O)c2cccc(C(F)(F)F)c2)sc2c1CCC(=O)C2
Response given: false (0)

Challenge: // query: Nc1ccccc1NC(=O)CCCCCCC(=O)Nc1ccc2c(c1)/C(=C/c1ccc[nH]1)C(=O)N2
Response given: false (0)

Challenge: Same again, this time with CCN(CC)CCOc1ccc(Nc2ncc3cc(-c4c(Cl)cccc4Cl)c(=O)n(CCOC)c3n2)cc1
Response given: true (1)

Challenge: What do we get for O=C(Nc1ncc(Cc2ccccc2)s1)c1ccc2c(c1)OCCCO2 ?
Response given: true (1)

Challenge: Please do the same for Nc1c(C(=O)c2cccc(-c3ccc[n+]([O-])c3)c2)cnn1-c1ccc(F)cc1F as well.
Response given: false (0)

Challenge: What do you have for COc1cc([C@@H]2c3cc4c(cc3C(Br)[C@H]3COC(=O)[C@H]23)OCO4)cc(OC)c1OC (stereo not given in full) ?
Response given: true (1)
